TESTED_ON: T1, recombinant human IL-6 (human, UniProt P05231 30-212, limits assumed)
T1 construct: also called rhIL6; human recombinant IL-6
METHOD_NOTES: competition ELISA, rhIL-6 in solution against captured IL-6 (Affinity (nM) by IC50 ELISA)
PROPERTY: pIC50
Hey, just a heads up that pIC50 is the negative log base 10 of the concentration in molar.

>>> observed_measurement("mAb 1338 (antibody, V domains shown) VH: QVTLKESGPTLVKPTQTLTLTCSFSGFSLSTSGVGVGWVRQPPGKALEWLAFIWWDDDKYYSPSLESRLTITKDTSKNQVVLTMTNMDPVDTATYYCARSADDYLYYSFDTWGQGTLVT VL: DIQMTQSPSSLSAFVGDGVTMTCWASQSINDYLNWYHQRPGEAPELLVFAASNLQIGVPSRFRGSGSETYFTLTINSLQPEDSGTYFCQSGHSFPLTFGGGTKLEI")
10.51

Read the next record carefully.
Item mAb 88 (chimeric B-E8 control antibody) (antibody, V domains shown, Biotinylated in FIG. 16., Chimeric form of murine B-E8; also called control mAb 88) VH: QVTLKESGPGILKPSQTLSLTCSFSGFSLSTSGMGVGWIRQPSGKGLEWLAHIWWDDDKYYNPSLKSQLTISKDTSRNQVFLKITSVDTADTATYYCARSYDDYLYYALDYWGQGTSVTVSS VL: DIVMTQSPATLSVTPGDRVSLSCRASQSISDYLHWYQQKSHESPRLLIKSVSQSISGIPSRFSGSGSGSDFTLSINSVEPEDVGVYYCQNGHSFPLTFGAGTKLELK has what recorded pIC50?
11.00
